Reported koff values for the following binders.
- measured_target: T1, human DLL3-His (human, UniProt Q9NYJ7 27-492)
- T1 construct: also called hDLL3
- T1 sequence: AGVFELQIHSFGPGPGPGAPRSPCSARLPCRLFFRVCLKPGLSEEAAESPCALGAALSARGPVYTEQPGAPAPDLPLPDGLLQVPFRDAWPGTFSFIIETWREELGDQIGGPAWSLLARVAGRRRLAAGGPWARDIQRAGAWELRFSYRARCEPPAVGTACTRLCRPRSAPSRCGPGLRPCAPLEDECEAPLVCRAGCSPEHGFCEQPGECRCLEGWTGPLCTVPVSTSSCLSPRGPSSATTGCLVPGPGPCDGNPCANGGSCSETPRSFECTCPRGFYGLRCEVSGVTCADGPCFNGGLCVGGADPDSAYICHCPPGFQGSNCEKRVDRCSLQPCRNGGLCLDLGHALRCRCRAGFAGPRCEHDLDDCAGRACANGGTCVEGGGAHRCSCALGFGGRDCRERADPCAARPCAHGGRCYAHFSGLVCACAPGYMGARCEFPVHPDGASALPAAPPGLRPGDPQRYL
- experiment_notes: SPR (Biacore 8K), 37 C, antibody captured on anti-human Fc, DLL3-His 0.411-300 nM injected, 1:1 fit
test_readout: koff (s⁻¹)

humanized anti-DLL3 antibody h5E7-YD-C6 (antibody, V domains shown, Expressed as IgG1 mAb: human IgG1 CH1-CH2-CH3 and human constant kappa; also called C6 variant) VH: QVQLVQSGAEVKKPGASVKVSCKASGFNIKDDYIHWVRQAPGQGLEWMGWIDSENGDTEYASKFQGRVTITADTSANTAYMELSSLRSEDTAVYYCATSEYYSYDLFVYWGQGTLVTVSS VL: DVQMTQSPSSLSASVGDRVTITCKSSQSLLHSNGKTYLNWLQQKPGQAPKLLLYLVSKLESGVPSRFSGSGSGTDYTLTISSLQPEDFATYYCLQTTHLYTFGQGTKLEIK :: 0.00137
humanized anti-DLL3 antibody h5E7-YD-A6 (antibody, V domains shown, Expressed as IgG1 mAb: human IgG1 CH1-CH2-CH3 and human constant kappa; also called A6 variant) VH: QVQLVQSGAEVKKPGASVKVSCKASGFNIKDDYIHWVRQAPGQGLEWMGWIDSENGDTEYASKFQGRVTITADTSANTAYMELSSLRSEDTAVYYCATSSYWSYDLFVYWGQGTLVTVSS VL: DVQMTQSPSSLSASVGDRVTITCKSSQSLLHSNGKTYLNWLQQKPGQAPKLLLYLVSKLESGVPSRFSGSGSGTDYTLTISSLQPEDFATYYCLQTTHLYTFGQGTKLEIK :: 0.000434
humanized anti-DLL3 antibody h5E7-YD-F3 (antibody, V domains shown, Expressed as IgG1 mAb: human IgG1 CH1-CH2-CH3 and human constant kappa; also called F3 variant) VH: QVQLVQSGAEVKKPGASVKVSCKASGFNIKDDYIHWVRQAPGQGLEWMGWIDSENGDTEYASKFQGRVTITADTSANTAYMELSSLRSEDTAVYYCATSSYWSYDLLVYWGQGTLVTVSS VL: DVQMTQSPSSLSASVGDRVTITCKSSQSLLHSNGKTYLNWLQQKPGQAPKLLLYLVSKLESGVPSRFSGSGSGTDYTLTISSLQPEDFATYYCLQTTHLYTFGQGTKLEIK :: 0.000405
